# Assayed System: HLA-A*33:01
# Test Description: IEDB peptide-MHC binding, purified MHC/competitive/radioactivity; filed as Kd, often an IC50 or EC50 that approximates it; bounds were set here for any values at or beyond the usual limits of such assays
# Experimental Parameters: source organism: Dengue virus 4 Philippines/H241/1956
Value Type: pKd
Numbers only, as −log10 of the molar value.

input: Determine from records and report pKd for MFGGVSWMVR
output: 8.34

====

# Assayed System: HLA-B*18:01
# Test Description: IEDB peptide-MHC binding, purified MHC/direct/fluorescence; filed as Kd, often an IC50 or EC50 that approximates it; bounds were set here for any values at or beyond the usual limits of such assays
# Experimental Parameters: source organism: Escherichia coli O157:H7
Value Type: Kd

input: Determine from records and report Kd for YLFQWNDNV
output: ≥ 20 µM

====

# Assayed System: HLA-B*44:03
# Test Description: IEDB peptide-MHC binding, purified MHC/competitive/radioactivity; filed as Kd, often an IC50 or EC50 that approximates it; bounds were set here for any values at or beyond the usual limits of such assays
# Experimental Parameters: source organism: Mammarenavirus brazilense
Value Type: Kd (µM)
Give bare numbers, in µM.

input: Give Kd only, for IDPLIVSTS , using HLA-B*44:03 data.
output: 18.3

====

# Assayed System: HLA-C*07:02
# Test Description: IEDB peptide-MHC binding, purified MHC/direct/fluorescence; filed as Kd, often an IC50 or EC50 that approximates it; bounds were set here for any values at or beyond the usual limits of such assays
# Experimental Parameters: source organism: Kurkino virus
Value Type: pKd
Numbers only, as −log10 of the molar value.

input: Determine from records and report pKd for RRNDGVVQY
output: 7.54

====

# Assayed System: HLA-A*01:01
# Test Description: IEDB peptide-MHC binding, purified MHC/competitive/radioactivity; filed as Kd, often an IC50 or EC50 that approximates it; bounds were set here for any values at or beyond the usual limits of such assays
# Experimental Parameters: source organism: Homo sapiens
Value Type: pKd
One number for each entry, as −log10 of the molar value.

input: Determine from records and report pKd for PFDTRQMLFY
output: 6.60

====

# Assayed System: HLA-B*35:01
# Test Description: IEDB peptide-MHC binding, purified MHC/direct/fluorescence; filed as Kd, often an IC50 or EC50 that approximates it; bounds were set here for any values at or beyond the usual limits of such assays
# Experimental Parameters: source organism: Vibrio vulnificus
Value Type: Kd (nM)
One number for each entry, in nM.

input: Determine from records and report Kd for IQTHCEVGY
output: 940

====

# Assayed System: HLA-A*02:07
# Test Description: IEDB peptide-MHC binding, purified MHC/competitive/radioactivity; filed as Kd, often an IC50 or EC50 that approximates it; bounds were set here for any values at or beyond the usual limits of such assays
# Experimental Parameters: source organism: Homo sapiens
Value Type: Kd

input: Give Kd only, for FAFVTDNTY , using HLA-A*02:07 data.
output: ≥ 77.7 µM

====

# Assayed System: HLA-A*02:01
# Test Description: IEDB peptide-MHC binding, purified MHC/direct/fluorescence; filed as Kd, often an IC50 or EC50 that approximates it; bounds were set here for any values at or beyond the usual limits of such assays
# Experimental Parameters: source organism: Bacillus cereus
Value Type: pKd
Answers are plain numbers, as −log10 of the molar value.

- Residues: "GLPESTPSL"
  Reported: 7.92

input: Determine from records and report pKd for YTLNDAPYI
output: 7.42
